# Measured target: T1, HLA-A2/NY-ESO peptide complex presented on cells (human)
# T1 construct: whole, on cells; also called HLA/NY-ESO; T2 cells supplemented with the NY-ESO peptide
# Assay notes: flow cytometry on peptide-pulsed T2 cells, scFv 100 nM;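 note: scFv binding read as gMFI and normalized to the level of HLA/peptide complex displayed on T2 cells, with homologous 9-mer peptides used to probe specificity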
Property name: standardized gMFI
Number, no unit, nothing else.

Form: binder = NYA-2143 (scFv) scFv: GEVQLVESGGGVVQPGRSLTPSCSASGFSIRSYDIHWVRLAPGKGLEWVATISYDGSQKYFADSVKGRFTIFRDESENMVYLQMSGLRVEDTAVYHCARGSSGHYEAFDIWGQGTMVTVSSGGGGSGGGGSGGGGSQSVLTQPPSVSAAPGQKVTISCSGSSSNIGNWYVSWYQRLPGTAPKLLIYDNNKRPSGIPDRFSGSKSGTSATLGITGLQTGDEADYYCGTWDSSLSAPWVFGGGTKVTVLGAAAGAGGDYKDDDDKGAAAHHHHHH ; standardized gMFI = 13.5
